# measuredOn: Muscarinic acetylcholine receptor M1 (Homo sapiens)
# Sequence (P11229 whole entry): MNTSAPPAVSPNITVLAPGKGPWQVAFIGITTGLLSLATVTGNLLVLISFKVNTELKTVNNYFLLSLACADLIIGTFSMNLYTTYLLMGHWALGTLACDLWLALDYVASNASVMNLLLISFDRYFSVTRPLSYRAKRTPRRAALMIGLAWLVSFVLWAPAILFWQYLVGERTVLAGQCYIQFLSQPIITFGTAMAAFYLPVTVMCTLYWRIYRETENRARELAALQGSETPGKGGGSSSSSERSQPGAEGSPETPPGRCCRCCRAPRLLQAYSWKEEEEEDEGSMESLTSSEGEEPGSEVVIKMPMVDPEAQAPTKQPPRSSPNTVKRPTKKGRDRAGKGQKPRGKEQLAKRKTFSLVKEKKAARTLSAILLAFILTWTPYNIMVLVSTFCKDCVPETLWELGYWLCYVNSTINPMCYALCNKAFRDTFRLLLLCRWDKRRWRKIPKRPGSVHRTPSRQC
pEC50: −log10 of the molar value.
So basically: pEC50 at 5 or higher? That is class 1. Lower than 5? That is class 0.

{"compound": "CO/N=C/C1=CCCN(C)C1", "measuredOn": "Muscarinic acetylcholine receptor M1 (Homo sapiens)", "categoryLabel": "class 1"}
{"compound": "CSCC1CC(C2=CCCN(C)C2)=NO1 (configuration not stated)", "measuredOn": "Muscarinic acetylcholine receptor M1 (Homo sapiens)", "categoryLabel": "class 1"}
{"compound": "CN1CCC=C(C2=NOC(N3CCCC3=O)C2)C1 (configuration not stated)", "measuredOn": "Muscarinic acetylcholine receptor M1 (Homo sapiens)", "categoryLabel": "class 1"}
{"compound": "CN1CCC=C(c2ccon2)C1", "measuredOn": "Muscarinic acetylcholine receptor M1 (Homo sapiens)", "categoryLabel": "class 1"}
{"compound": "CN1CCC=C(C2=NOC(O)C2)C1 (configuration not stated)", "measuredOn": "Muscarinic acetylcholine receptor M1 (Homo sapiens)", "categoryLabel": "class 0"}
{"compound": "O=C1CCCN1CC#CCN1CCCC1", "measuredOn": "Muscarinic acetylcholine receptor M1 (Homo sapiens)", "categoryLabel": "class 1"}
